Target: T1, S1 subunit of the SARS-CoV-2 spike protein (Sino Biological 40591-V08H), His tag (SARS-CoV-2, UniProt P0DTC2 16-685)
T1 construct: domain: S1 subunit
MEASURED ENDPOINT: HTRF deltaF (deltaF)
Field format: number, assumed deltaF, no unit text.

IMPI-017 (antibody, V domains shown) VH: EVQLVESGGGLIQPGGSLRLSCAAAGLTVSSNYMNWVRQVPGKGLEWVSVIYSGGSTYYADSVKGRFTISRDNSKNTLYLQMNSLRAEDTAVYYCARDLGTLGMDVWGQGTTVTVSS VL: DIQLTQSPSFLSASVGDRVTITCWASQGISTYLAWYQQKPGKAPKLLIYAASTLQSGVPSRFSGSGSGTEFTLTISSLQPEDFATYYCQQLNSYLPTFGQGTKVEIK = 752
IMPI-029 (antibody, V domains shown) VH: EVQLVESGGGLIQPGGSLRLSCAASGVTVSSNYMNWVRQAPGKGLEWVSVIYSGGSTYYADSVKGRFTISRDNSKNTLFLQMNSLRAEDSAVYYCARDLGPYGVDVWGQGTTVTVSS VL: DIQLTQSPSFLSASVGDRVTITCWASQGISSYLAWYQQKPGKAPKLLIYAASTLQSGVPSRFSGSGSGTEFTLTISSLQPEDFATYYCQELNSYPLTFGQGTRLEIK = 3050

Next, consider the following binder.
Per the record, IMPI-054 (antibody, V domains shown) VH: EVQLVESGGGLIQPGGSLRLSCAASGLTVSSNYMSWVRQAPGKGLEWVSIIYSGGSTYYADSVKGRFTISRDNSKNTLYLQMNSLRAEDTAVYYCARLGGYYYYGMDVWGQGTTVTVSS VL: DIQMTQSPSSLSASVGERVTITCQASQDIRNYLNWYQKKPGKAPKLLIYDSSNLETGVPSRFSGSGSGTDFTFTISSLQPEDIATYYCQQYDNLPITFGQGTRLEIK has HTRF deltaF of 772
